Target: Fibroblast growth factor 2 (Homo sapiens) (UniProt P09038)
Sequence (P09038 whole entry, looked up): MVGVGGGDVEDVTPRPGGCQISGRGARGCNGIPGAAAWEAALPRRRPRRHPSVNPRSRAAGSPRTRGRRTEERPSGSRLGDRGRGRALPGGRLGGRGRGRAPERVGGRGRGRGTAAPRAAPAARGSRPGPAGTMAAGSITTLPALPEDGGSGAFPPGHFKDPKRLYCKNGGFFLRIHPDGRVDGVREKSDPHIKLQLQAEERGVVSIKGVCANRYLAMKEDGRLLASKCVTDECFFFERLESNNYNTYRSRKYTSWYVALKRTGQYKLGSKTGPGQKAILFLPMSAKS
Experiment: basic fibroblast growth factor binding to printed compounds – biochemical, small-molecule microarray, 635/667 nm fluorescence, primary screen (AID 1133)
Details: FGF2, fluorescence 635/667, higher = more signal
composite z-score vs 0.2: at or above is y, below is n.

Molecule: CC(c1ccccc1)C(O)C1C=CC2C(=O)N(C)C(=O)C2N1NC(=O)OC(C)(C)C (stereo unspecified)
Classification: n

Molecule: CCCCC(=C=CC[C@H](O)c1cccc(OCCO)c1)C[C@H](O)c1ccccn1
Classification: y

Molecule: [N-]=[N+]=Nc1ccccc1C[C@@]1(C(=O)N2CCCCC2)N=C(c2ccc(OCCCO)cc2)O[C@@H]1c1ccccc1
Classification: n

Molecule: Cc1c(NC(=O)/C(C#N)=C/c2cccc([N+](=O)[O-])c2)c(=O)n(-c2ccccc2)n1C
Classification: y

Molecule: COc1cc(CO)cc(I)c1O[C@H]1C=C(C(=O)NCCO)C[C@@H](NC[C@@H]2CCCO2)[C@@H]1O
Classification: y

Lookup: Evaluate `CCOC(=O)C1=CC[C@@H](c2ccccc2)N(S(=O)(=O)c2ccc(C)cc2)[C@H]1c1ccc(CC)cc1` : composite z-score at minimum 0.2?
Found: y

Provenance of the data: PubChem BioAssay
